These entries and their values trace back to ChEMBL document CHEMBL5291721.

This section presents molecules with their documented AC50 values.
Target: Neuropeptide Y receptor type 2 (Homo sapiens); note: assay procedure not described here
Sequence (P49146 whole entry): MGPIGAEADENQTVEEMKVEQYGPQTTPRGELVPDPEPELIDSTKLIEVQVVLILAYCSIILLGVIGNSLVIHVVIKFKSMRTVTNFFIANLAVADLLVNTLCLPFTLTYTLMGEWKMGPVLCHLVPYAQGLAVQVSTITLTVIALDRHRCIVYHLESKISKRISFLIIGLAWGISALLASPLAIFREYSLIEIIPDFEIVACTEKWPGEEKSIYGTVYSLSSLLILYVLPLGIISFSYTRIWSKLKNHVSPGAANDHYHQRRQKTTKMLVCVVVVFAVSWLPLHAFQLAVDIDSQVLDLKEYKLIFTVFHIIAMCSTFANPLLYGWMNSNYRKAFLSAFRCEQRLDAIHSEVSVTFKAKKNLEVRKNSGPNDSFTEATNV

>  <MOLECULE>
CC(=O)OCC(CCn1cnc2cnc(N)nc21)COC(C)=O [FAMCICLOVIR]

>  <SUBJECT_OF_TEST>
Neuropeptide Y receptor type 2 (Homo sapiens); note: assay procedure not described here

>  <AC50>
> 30 µM

$$$$
>  <MOLECULE>
CCCCNc1ccc(C(=O)OCCN(C)C)cc1 [TETRACAINE]

>  <SUBJECT_OF_TEST>
Neuropeptide Y receptor type 2 (Homo sapiens); note: assay procedure not described here

>  <AC50>
> 30 µM

$$$$
>  <MOLECULE>
C[C@H]1C[C@H]2[C@@H]3CCC4=CC(=O)C=C[C@]4(C)[C@@]3(Cl)[C@@H](O)C[C@]2(C)[C@@]1(O)C(=O)CO [BECLOMETHASONE]

>  <SUBJECT_OF_TEST>
Neuropeptide Y receptor type 2 (Homo sapiens); note: assay procedure not described here

>  <AC50>
> 30 µM

$$$$

Now for another entry.
Data request: Any idea what AC50 was measured for N[C@H](Cc1cc(I)c(Oc2cc(I)c(O)c(I)c2)c(I)c1)C(=O)O [DEXTROTHYROXINE] ?
Data returned: > 30 µM

----------
Listed here are molecules together with their documented AC50.
Biological target: Delta-type opioid receptor (Homo sapiens); note: assay procedure not described here
Sequence (P41143 whole entry): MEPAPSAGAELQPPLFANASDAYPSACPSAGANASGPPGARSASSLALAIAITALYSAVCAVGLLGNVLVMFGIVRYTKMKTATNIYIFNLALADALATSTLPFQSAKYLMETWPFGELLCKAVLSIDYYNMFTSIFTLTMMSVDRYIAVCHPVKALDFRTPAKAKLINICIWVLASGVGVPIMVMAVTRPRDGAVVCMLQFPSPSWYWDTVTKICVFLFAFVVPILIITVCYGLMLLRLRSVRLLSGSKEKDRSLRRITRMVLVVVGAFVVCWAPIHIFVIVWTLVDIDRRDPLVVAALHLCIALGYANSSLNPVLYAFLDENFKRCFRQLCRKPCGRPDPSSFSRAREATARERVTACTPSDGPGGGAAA

>  <SMILES_STR>
[H]/N=C(/N)N[C@H]1[C@H](O)[C@@H](O)[C@H](O[C@@H]2O[C@@H](C)[C@](O)(C=O)[C@H]2O[C@@H]2O[C@@H](CO)[C@H](O)[C@@H](O)[C@@H]2NC)[C@@H](N/C(N)=N\[H])[C@@H]1O

>  <READOUT_VALUE>
> 30 µM

$$$$
>  <SMILES_STR>
CNC(=O)Oc1ccc2c(c1)[C@]1(C)CCN(C)[C@@H]1N2C

>  <READOUT_VALUE>
> 30 µM

$$$$

Data request: Param item = "CNCC[C@@H](Oc1ccccc1C)c1ccccc1" ; retrieve measured AC50.
Data returned: > 30 µM

----------
Measured AC50 values are reported for all entries that follow.
Biological target: Glucocorticoid receptor (Homo sapiens, UniProt P04150); note: assay procedure not described here
Sequence (P04150 whole entry): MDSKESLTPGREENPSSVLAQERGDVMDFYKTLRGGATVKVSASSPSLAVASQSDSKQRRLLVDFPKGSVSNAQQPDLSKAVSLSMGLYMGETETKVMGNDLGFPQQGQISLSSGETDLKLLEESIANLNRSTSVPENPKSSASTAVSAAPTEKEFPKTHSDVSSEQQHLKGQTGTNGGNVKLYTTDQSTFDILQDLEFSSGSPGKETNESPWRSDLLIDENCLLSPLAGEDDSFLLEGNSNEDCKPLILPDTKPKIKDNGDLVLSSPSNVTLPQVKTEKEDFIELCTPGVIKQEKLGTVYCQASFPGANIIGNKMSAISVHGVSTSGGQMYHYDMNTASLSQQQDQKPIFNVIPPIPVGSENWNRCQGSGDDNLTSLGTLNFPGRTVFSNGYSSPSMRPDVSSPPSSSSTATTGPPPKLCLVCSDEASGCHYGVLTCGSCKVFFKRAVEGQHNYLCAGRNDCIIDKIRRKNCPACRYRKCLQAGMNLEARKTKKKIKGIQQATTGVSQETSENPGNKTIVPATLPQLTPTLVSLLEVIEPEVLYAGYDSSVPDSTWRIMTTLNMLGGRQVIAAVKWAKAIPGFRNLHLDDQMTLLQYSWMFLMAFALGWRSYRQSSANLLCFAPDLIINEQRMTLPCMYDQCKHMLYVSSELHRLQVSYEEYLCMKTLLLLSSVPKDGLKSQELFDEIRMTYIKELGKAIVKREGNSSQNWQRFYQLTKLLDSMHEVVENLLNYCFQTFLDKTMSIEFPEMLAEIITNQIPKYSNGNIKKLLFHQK

>  <COMPOUND>
O=C(Nc1c(Cl)cncc1Cl)c1ccc(OC(F)F)c(OCC2CC2)c1

>  <ASSAY_METRIC>
AC50

>  <READOUT_VALUE>
> 30 µM

$$$$
>  <COMPOUND>
CCc1oc2ccccc2c1C(=O)c1cc(Br)c(O)c(Br)c1

>  <ASSAY_METRIC>
AC50

>  <READOUT_VALUE>
11 µM

$$$$
>  <COMPOUND>
CC(=O)O[C@H]1C[C@@H]2CC[C@@H]3[C@H](CC[C@@]4(C)[C@H]3C[C@H]([N+]3(C)CCCCC3)[C@@H]4OC(C)=O)[C@@]2(C)C[C@@H]1[N+]1(C)CCCCC1

>  <ASSAY_METRIC>
AC50

>  <READOUT_VALUE>
> 10 µM

$$$$
>  <COMPOUND>
CCCCCCOC(=O)CCC(=O)CN [HEXAMINOLEVULINATE]

>  <ASSAY_METRIC>
AC50

>  <READOUT_VALUE>
> 30 µM

$$$$
>  <COMPOUND>
CC(C)=CCOc1ccc(/C=C/C(=O)c2ccc(OCC=C(C)C)cc2OCC(=O)O)cc1

>  <ASSAY_METRIC>
AC50

>  <READOUT_VALUE>
> 30 µM

$$$$
>  <COMPOUND>
CC(=O)/N=c1/sc(S(N)(=O)=O)nn1C [METHAZOLAMIDE]

>  <ASSAY_METRIC>
AC50

>  <READOUT_VALUE>
> 10 µM

$$$$

Data request: Data request, read-out AC50, for "CC(=O)OCC(CCn1cnc2cnc(N)nc21)COC(C)=O"
Data returned: > 30 µM

Data request: Query: AC50; subject: "CCCOC(C(=O)OC1CCN(C)CC1)(c1ccccc1)c1ccccc1"
Data returned: > 30 µM

Data request: Query (compound): "CCCCC1(CC)C(=O)NC(=O)NC1=O" ; field requested: AC50
Data returned: > 30 µM

Data request: Give the measured AC50 of CC[N+]1(C)CCCC(OC(=O)C(O)(c2ccccc2)c2ccccc2)C1 (stereo not drawn) [PIPENZOLATE] .
Data returned: > 30 µM

Data request: So what's the measured AC50 for this one? "C#C[C@]1(O)CC[C@H]2[C@@H]3CCC4=CC(=O)CCC4=C3C=C[C@@]21CC"
Data returned: 0.01 µM

Data request: Look at this compound and give its reported AC50. "CC(C)N(CCCCOCC(=O)NS(C)(=O)=O)c1cnc(-c2ccccc2)c(-c2ccccc2)n1"
Data returned: > 30 µM

Data request: Which AC50 reading was recorded for the compound "CC(C)C[C@H](CN)CC(=O)O" ?
Data returned: > 30 µM

Data request: Given NS(=O)(=O)c1cc(C2(O)NC(=O)c3ccccc32)ccc1Cl (stereo not drawn) , state its recorded AC50.
Data returned: > 10 µM

Data request: Look up AC50: CC(CCc1ccccc1)NC(C)C(O)c1ccc(O)cc1 (stereo not drawn)
Data returned: > 30 µM

Data request: Consider the compound "C[C@]1(COc2ccc(N3CCC(Oc4ccc(OC(F)(F)F)cc4)CC3)cc2)Cn2cc([N+](=O)[O-])nc2O1" and give its measured AC50.
Data returned: > 30 µM

Data request: Please report the recorded AC50 for NS(=O)(=O)c1cc(C(=O)O)cc(N2CCCC2)c1Oc1ccccc1 [PIRETANIDE] .
Data returned: > 30 µM

Data request: Query: AC50; subject: "[H]/N=C(\N/C(=N/[H])NCCCCCCNC(=N)NC(=N)Nc1ccc(Cl)cc1)Nc1ccc(Cl)cc1"
Data returned: > 30 µM

----------
Biological target: Voltage-gated inwardly rectifying potassium channel KCNH2 (Homo sapiens, UniProt Q12809); note: assay procedure not described here
Sequence (Q12809 whole entry): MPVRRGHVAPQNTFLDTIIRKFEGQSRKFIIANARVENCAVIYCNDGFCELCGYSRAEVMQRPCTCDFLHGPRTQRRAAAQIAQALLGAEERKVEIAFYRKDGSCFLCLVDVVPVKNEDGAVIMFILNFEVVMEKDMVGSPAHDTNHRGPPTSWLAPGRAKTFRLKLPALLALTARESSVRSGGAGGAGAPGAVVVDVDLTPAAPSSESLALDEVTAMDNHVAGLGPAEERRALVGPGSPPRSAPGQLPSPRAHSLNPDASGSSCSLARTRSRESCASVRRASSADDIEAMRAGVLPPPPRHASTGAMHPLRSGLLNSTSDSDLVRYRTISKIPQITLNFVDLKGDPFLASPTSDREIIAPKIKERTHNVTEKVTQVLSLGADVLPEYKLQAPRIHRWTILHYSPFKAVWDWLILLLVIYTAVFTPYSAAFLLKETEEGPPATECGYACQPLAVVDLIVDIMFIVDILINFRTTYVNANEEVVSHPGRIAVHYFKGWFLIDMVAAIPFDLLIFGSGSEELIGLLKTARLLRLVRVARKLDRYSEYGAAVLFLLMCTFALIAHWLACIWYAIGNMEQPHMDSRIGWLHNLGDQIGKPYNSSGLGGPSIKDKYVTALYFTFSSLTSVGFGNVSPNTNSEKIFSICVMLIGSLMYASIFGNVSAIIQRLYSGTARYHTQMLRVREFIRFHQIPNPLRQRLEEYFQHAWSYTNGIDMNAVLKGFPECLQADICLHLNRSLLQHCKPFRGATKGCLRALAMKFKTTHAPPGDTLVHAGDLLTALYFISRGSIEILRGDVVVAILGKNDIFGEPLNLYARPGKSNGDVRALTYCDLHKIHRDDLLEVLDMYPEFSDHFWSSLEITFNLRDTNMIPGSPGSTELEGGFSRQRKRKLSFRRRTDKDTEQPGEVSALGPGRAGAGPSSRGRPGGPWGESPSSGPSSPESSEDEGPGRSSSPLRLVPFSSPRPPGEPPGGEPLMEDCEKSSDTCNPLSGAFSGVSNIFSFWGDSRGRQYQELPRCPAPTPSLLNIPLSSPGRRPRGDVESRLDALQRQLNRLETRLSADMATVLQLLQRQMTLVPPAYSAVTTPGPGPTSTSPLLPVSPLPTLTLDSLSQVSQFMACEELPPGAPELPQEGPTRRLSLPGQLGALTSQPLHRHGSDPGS
Type: functional
Settings: human, cellular components
ASSAY_METRIC: AC50

Data request: Data request, read-out AC50, for "COLISTIN"
Data returned: > 30 µM

----------
// values below are reported AC50
Biological target: Androgen receptor (Rattus norvegicus, UniProt P15207); note: assay procedure not described here
Sequence (P15207 whole entry): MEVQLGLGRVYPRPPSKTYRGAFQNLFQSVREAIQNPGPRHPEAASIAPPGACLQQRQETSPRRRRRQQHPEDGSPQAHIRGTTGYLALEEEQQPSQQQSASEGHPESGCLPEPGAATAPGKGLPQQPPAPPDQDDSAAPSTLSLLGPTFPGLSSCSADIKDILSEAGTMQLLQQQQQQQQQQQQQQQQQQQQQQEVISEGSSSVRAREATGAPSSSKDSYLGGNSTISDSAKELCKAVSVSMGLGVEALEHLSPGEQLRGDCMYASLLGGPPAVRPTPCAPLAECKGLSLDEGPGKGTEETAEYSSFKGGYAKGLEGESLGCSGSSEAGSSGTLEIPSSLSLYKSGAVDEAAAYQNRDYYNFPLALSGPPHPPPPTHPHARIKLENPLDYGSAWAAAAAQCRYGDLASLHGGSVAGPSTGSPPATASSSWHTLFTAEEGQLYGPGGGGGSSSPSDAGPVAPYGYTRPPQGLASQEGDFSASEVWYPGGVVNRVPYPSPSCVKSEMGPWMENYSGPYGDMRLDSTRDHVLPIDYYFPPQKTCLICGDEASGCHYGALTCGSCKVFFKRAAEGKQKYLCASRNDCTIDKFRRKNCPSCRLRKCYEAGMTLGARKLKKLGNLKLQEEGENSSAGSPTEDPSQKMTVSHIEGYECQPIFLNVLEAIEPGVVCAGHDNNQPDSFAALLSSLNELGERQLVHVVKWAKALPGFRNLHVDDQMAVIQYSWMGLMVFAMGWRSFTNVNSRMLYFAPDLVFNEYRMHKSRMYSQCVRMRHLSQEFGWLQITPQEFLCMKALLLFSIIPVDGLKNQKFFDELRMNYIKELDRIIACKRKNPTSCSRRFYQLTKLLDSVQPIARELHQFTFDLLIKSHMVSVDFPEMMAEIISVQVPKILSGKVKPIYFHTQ

>  <COMPOUND>
Clc1ccc2c(c1)C(c1ccccc1)=NCc1nncn1-2

>  <AC50>
> 30 µM

$$$$
>  <COMPOUND>
[H]/N=C(\N/C(=N/[H])NCCCCCCNC(=N)NC(=N)Nc1ccc(Cl)cc1)Nc1ccc(Cl)cc1

>  <AC50>
> 30 µM

$$$$
>  <COMPOUND>
CC#CCn1c(N2CCC[C@@H](N)C2)nc2c1c(=O)n(Cc1nc(C)c3ccccc3n1)c(=O)n2C

>  <AC50>
> 30 µM

$$$$
>  <COMPOUND>
N#C[C@@H]1CCCN1C(=O)CNC12CC3CC(CC(O)(C3)C1)C2

>  <AC50>
> 30 µM

$$$$
>  <COMPOUND>
OCCN1CCN(CC/C=C2/c3ccccc3Sc3ccc(Cl)cc32)CC1

>  <AC50>
> 10 µM

$$$$
>  <COMPOUND>
CC(=O)OCC(CCn1cnc2cnc(N)nc21)COC(C)=O

>  <AC50>
> 30 µM

$$$$

// below: AC50 requested for another compound
Data request: Endpoint output: AC50 of NC(=O)CCC/N=C(\c1ccc(Cl)cc1)c1cc(F)ccc1O [PROGABIDE] . Value?
Data returned: > 10 µM
